test: Thermal stability of films (chromaticity difference ΔEab after baking); format: physicochemical; settings: film of dye in alkaline soluble acrylic resin on glass; hard bake 230° C., air, 1 h; smaller value = better heat resistance
Consider the following compounds and their measured ΔEab after baking at 230° C. for 1 h readings.

{"columns": ["COMPOUND", "ΔEab after baking at 230° C. for 1 h"],
 "data": [
  ["Cc1cc(C)c(Nc2ccc(Nc3c(C)cc(OCCC[Si](C)(C)O[Si](C)(C)O[Si](C)(C)CCCOc4cc(C)c(Nc5ccc(Nc6c(C)cc(C)cc6C)c6c5C(=O)c5ccccc5C6=O)c(C)c4)cc3C)c3c2C(=O)c2ccccc2C3=O)c(C)c1 [Dye 3]", 1.5],
  ["Cc1cc(OCCC[Si](C)(O[Si](C)(C)C)O[Si](C)(C)C)cc(C)c1Nc1ccc(Nc2c(C)cc(OCCC[Si](C)(O[Si](C)(C)C)O[Si](C)(C)C)cc2C)c2c1C(=O)c1ccccc1C2=O [Dye 1]", 3.2],
  ["Cc1cc(C)c(Nc2ccc(Nc3c(C)cc(OCCC[Si](C)(O[Si](C)(C)C)O[Si](C)(CCCOc4cc(C)c(Nc5ccc(Nc6c(C)cc(C)cc6C)c6c5C(=O)c5ccccc5C6=O)c(C)c4)O[Si](C)(C)C)cc3C)c3c2C(=O)c2ccccc2C3=O)c(C)c1 (stereo not drawn) [Dye 2]", 3.6],
  ["Cc1cc(C)c(Nc2ccc(Nc3c(C)cc(C)cc3C)c3c2C(=O)c2ccccc2C3=O)c(C)c1 [Solvent Blue 104, 1,4-bis(mesitylamino)anthraquinone, reference compound]", 7.0]
]}

###

Consider the following molecules and their measured Solubility in PGMEA (wt %) readings.
experiment: Solubility of dye in PGMEA; assay type: physicochemical; details: solvent PGMEA (propylene glycol monomethyl ether acetate)

{"columns": ["MOLECULE", "Solubility in PGMEA (wt %)"],
 "data": [
  ["CC(C)Nc1ccc(NC(C)C)c2c1C(=O)c1ccccc1C2=O [Solvent Blue 36, reference compound]", 1.92],
  ["Cc1cc(C)c(Nc2ccc(Nc3c(C)cc(C)cc3C)c3c2C(=O)c2ccccc2C3=O)c(C)c1 [Solvent Blue 104, 1,4-bis(mesitylamino)anthraquinone, reference compound]", 0.6],
  ["Cc1cc(C)c(Nc2ccc(Nc3c(C)cc(OCCC[Si](C)(C)O[Si](C)(C)O[Si](C)(C)CCCOc4cc(C)c(Nc5ccc(Nc6c(C)cc(C)cc6C)c6c5C(=O)c5ccccc5C6=O)c(C)c4)cc3C)c3c2C(=O)c2ccccc2C3=O)c(C)c1 [Dye 3]", 9.7],
  ["Cc1cc(C)c(Nc2ccc(Nc3c(C)cc(OCCC[Si](C)(O[Si](C)(C)C)O[Si](C)(CCCOc4cc(C)c(Nc5ccc(Nc6c(C)cc(C)cc6C)c6c5C(=O)c5ccccc5C6=O)c(C)c4)O[Si](C)(C)C)cc3C)c3c2C(=O)c2ccccc2C3=O)c(C)c1 (stereo not drawn) [Dye 2]", 11.0],
  ["Cc1cc(OCCC[Si](C)(O[Si](C)(C)C)O[Si](C)(C)C)cc(C)c1Nc1ccc(Nc2c(C)cc(OCCC[Si](C)(O[Si](C)(C)C)O[Si](C)(C)C)cc2C)c2c1C(=O)c1ccccc1C2=O [Dye 1]", 17]
]}
